In this section we review reported % inhibition at 1.9 nM values for a set of binders.
target: T1, full length human DLL4 (human, UniProt Q9NR61 27-685); assay: FMAT competition, purified antibody vs Alexa-647 human Notch1/Fc, 293T cells with human DLL4
T1 construct: whole, on cells; also called native DLL4 expressed in HEK293 cells
T1 sequence (Q9NR61 27-685): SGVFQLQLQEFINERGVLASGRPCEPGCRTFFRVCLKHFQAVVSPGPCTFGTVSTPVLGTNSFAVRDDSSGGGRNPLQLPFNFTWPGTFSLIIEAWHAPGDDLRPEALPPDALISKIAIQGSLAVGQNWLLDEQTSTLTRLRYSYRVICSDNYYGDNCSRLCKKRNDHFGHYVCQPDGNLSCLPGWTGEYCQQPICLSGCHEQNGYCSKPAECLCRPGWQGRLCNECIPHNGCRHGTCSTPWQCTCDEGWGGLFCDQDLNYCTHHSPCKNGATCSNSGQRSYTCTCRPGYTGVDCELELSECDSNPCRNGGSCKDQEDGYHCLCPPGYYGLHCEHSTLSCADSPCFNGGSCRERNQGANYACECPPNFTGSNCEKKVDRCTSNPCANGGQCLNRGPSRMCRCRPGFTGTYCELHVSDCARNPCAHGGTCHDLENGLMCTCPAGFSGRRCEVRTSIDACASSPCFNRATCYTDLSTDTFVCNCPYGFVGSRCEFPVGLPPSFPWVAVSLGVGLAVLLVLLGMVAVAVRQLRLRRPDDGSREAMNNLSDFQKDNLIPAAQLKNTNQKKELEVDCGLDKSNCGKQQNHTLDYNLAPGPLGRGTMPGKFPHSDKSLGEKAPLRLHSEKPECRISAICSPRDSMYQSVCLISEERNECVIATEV
reported.metric: % inhibition at 1.9 nM (%)

[
  {
    "binder": "3A7 (antibody, IgG4, V domains shown, Fully human; also used where no isotype is printed) VH: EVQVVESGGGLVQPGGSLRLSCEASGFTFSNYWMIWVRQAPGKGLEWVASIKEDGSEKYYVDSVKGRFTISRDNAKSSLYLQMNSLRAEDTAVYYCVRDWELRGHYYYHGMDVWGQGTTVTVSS VL: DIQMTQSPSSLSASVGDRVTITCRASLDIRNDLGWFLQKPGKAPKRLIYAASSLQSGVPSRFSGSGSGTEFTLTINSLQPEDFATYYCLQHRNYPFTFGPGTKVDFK",
    "result.unit": "%",
    "numeric.result": 39
  },
  {
    "binder": "12A1 (antibody, IgG4, V domains shown, Fully human; also used where no isotype is printed) VH: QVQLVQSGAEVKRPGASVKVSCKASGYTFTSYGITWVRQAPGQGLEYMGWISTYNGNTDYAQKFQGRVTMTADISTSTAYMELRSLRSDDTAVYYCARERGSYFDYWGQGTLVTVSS VL: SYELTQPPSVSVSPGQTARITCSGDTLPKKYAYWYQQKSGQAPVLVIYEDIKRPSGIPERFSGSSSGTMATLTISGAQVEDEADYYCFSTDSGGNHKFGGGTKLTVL",
    "result.unit": "%",
    "numeric.result": 88
  }
]
